Ref: patent US20230357261A1

readoutName: melting point

Would you please look over these solved cases?
Return reported melting point; argument: c1ccc2[nH]c(CSc3ncnc4ccccc34)nc2c1
198 to 200 °C (dec.)

Cc1ccc2nc([S+]([O-])Cc3nccc(OCC(F)(F)F)c3C)[nH]c2c1 (stereo not drawn) ?
> 133 °C (dec.)

Okay, now this molecule:
Return reported melting point; argument: Cc1c(OCc2ccccc2)ccnc1CSc1nc2ccc(F)cc2[nH]1
175 to 177 °C

* * *

Recorded melting point by entry

Return reported melting point; argument: Cc1ccc2nc(S(=O)(=O)Cc3nccc(OCC(F)(F)F)c3C)[nH]c2c1 [compound 25]
193 to 194 °C

Okay, now this compound:
Return reported melting point; argument: Cc1c(Oc2ccccc2)ccnc1CS(=O)(=O)c1nc2ccc(F)cc2[nH]1 [compound 28]
155 to 157 °C

* * *

Recorded melting point by entry

Would you please look over these solved cases?
Return reported melting point; argument: COc1ccnc(CSc2nc3ccc(F)cc3[nH]2)c1C
153 to 155 °C

Cc1c(OCc2ccccc2)ccnc1CS(=O)(=O)c1nc2ccc(F)cc2[nH]1 ?
185 to 188 °C

Cc1ccc2nc(SCc3nccc(OCC(F)(F)F)c3C)[nH]c2c1 ?
153 to 155 °C

COc1ccnc(CS(=O)(=O)c2nc3cc(F)ccc3[nH]2)c1C ?
192 to 193 °C

---
Return reported melting point; argument: Cc1c(OCC(F)(F)F)ccnc1CSc1nc2ccc(C#N)cc2[nH]1
204 to 205 °C

* * *

Recorded melting point by entry

Return reported melting point; argument: CCOc1ccnc(CS(=O)(=O)c2nc3ccc(F)cc3[nH]2)c1C
177 to 178 °C

Cc1c(Oc2ccccc2)ccnc1CSc1nc2ccc(F)cc2[nH]1 ?
134 to 136 °C

Okay, now this compound:
Return reported melting point; argument: CCOc1ccnc(CSc2nc3ccc(F)cc3[nH]2)c1C
102 to 104 °C
